FYI, the data here is from patent US8637040B2.

Test system: human sera
Test: ELISA of human serum samples on 4 peptides (Example XI)
Type: binding
Settings: human serum sample # 22
Recorded endpoint: ELISA 1:40 on 4 peptides Scale: 1+-3+

{"Sequence content": "RYDVGGDHYYFTMD [Pep10]", "Experimental target": "human sera", "Assay result": 2}
{"Sequence content": "HALMPATAVASL [Pep7]", "Experimental target": "human sera", "Assay result": 1.5}
{"Sequence content": "AFPQFRSATLLL [Pep4]", "Experimental target": "human sera", "Assay result": 1.5}
{"Sequence content": "GYTFTDYSMH [Pep8]", "Experimental target": "human sera", "Assay result": 1.5}

* * *

Tested on: human sera
Test: ELISA of human serum samples on 4 peptides (Example XI)
Format: binding
Settings: human serum sample # 23
Catalogue of ELISA 1:40 on 4 peptides Scale: 1+-3+ values
Recorded endpoint: ELISA 1:40 on 4 peptides Scale: 1+-3+

{"Sequence content": "HALMPATAVASL [Pep7]", "Assay result": 1.5}
{"Sequence content": "GYTFTDYSMH [Pep8]", "Assay result": 1.5}
{"Sequence content": "RYDVGGDHYYFTMD [Pep10]", "Assay result": 1}
{"Sequence content": "AFPQFRSATLLL [Pep4]", "Assay result": 2}

* * *

# ELISA 1:40 on 4 peptides Scale: 1+-3+ listing for each entry below
Test system: human sera
Test: ELISA of human serum samples on 4 peptides (Example XI)
Format: binding
Settings: human serum sample # 2
Recorded endpoint: ELISA 1:40 on 4 peptides Scale: 1+-3+

{"Sequence content": "AFPQFRSATLLL [Pep4]", "Experimental target": "human sera", "Recorded endpoint": "ELISA 1:40 on 4 peptides Scale: 1+-3+", "Assay result": 0.75}
{"Sequence content": "HALMPATAVASL [Pep7]", "Experimental target": "human sera", "Recorded endpoint": "ELISA 1:40 on 4 peptides Scale: 1+-3+", "Assay result": 1}
{"Sequence content": "GYTFTDYSMH [Pep8]", "Experimental target": "human sera", "Recorded endpoint": "ELISA 1:40 on 4 peptides Scale: 1+-3+", "Assay result": 1}
{"Sequence content": "RYDVGGDHYYFTMD [Pep10]", "Experimental target": "human sera", "Recorded endpoint": "ELISA 1:40 on 4 peptides Scale: 1+-3+", "Assay result": 1}
